Just for reference, patent US20230115176A1 is where these values come from.

Please respond with reported pIC50 for every item in the list.
target: Human C5 (Homo sapiens); construct: purchased Complement Technology; test: Red blood cell (RBC) hemolysis assay, luminescent (Example 13, Table 22); assay type: cell-based; conditions: sheep EA cells, […] C5-depleted human serum, 0.5 nM human C5, 1 hour 37° C., luminescence
Note on pIC50: it is the negative log10 of concentration, concentration in mol/L.

Request: What value of pIC50 has been reported for the following molecule? `COc1ccc(F)cc1CN1CCCN(c2ccc(OC)c(OCCCC3CCCCC3)c2)C1=O`
Result: 7.16

Request: What value of pIC50 has been reported for the following molecule? `CCCCCOc1cc(N2CCCN(Cc3ccc(Cc4nnn[nH]4)cc3OC)C2=O)ccc1OC`
Result: 7.26

Request: What value of pIC50 has been reported for the following molecule? `CCCCCOc1cc(N2CCCN(Cc3ccc(CC(=O)N[C@H]4CN(C)C[C@H]4F)cc3OC)C2=O)ccc1OC`
Result: 7.36

Request: What value of pIC50 has been reported for the following molecule? `CCCCCOc1cc(N2CCCN(Cc3cc(C)cc4c3ccn4CC(=O)N(C)C)C2=O)ccc1OC`
Result: 6.69

Request: What value of pIC50 has been reported for the following molecule? CCCCCOc1cc(N2CCCN(Cc3ccc(C(O)c4nccn4C)cc3OC)C2=O)ccc1OC (stereo not drawn)
Result: 8.05

Request: What value of pIC50 has been reported for the following molecule? `CCCCCOc1cc(N2CCCN(Cc3cccc4nc(CC)oc34)C2=O)ccc1OC`
Result: 6.02

###

Please respond with reported log10 Kd for every item in the list.
target: Human C5 (Homo sapiens, UniProt P01031); construct: purchased Complement Technology; test: Surface plasmon resonance (SPR), immobilized human C5 (Example 9, Table 18); assay type: binding; settings: immobilized human C5, equilibrium dissociation constant; read-out: SPR C5 EQ KD
Sequence (P01031 19-1676): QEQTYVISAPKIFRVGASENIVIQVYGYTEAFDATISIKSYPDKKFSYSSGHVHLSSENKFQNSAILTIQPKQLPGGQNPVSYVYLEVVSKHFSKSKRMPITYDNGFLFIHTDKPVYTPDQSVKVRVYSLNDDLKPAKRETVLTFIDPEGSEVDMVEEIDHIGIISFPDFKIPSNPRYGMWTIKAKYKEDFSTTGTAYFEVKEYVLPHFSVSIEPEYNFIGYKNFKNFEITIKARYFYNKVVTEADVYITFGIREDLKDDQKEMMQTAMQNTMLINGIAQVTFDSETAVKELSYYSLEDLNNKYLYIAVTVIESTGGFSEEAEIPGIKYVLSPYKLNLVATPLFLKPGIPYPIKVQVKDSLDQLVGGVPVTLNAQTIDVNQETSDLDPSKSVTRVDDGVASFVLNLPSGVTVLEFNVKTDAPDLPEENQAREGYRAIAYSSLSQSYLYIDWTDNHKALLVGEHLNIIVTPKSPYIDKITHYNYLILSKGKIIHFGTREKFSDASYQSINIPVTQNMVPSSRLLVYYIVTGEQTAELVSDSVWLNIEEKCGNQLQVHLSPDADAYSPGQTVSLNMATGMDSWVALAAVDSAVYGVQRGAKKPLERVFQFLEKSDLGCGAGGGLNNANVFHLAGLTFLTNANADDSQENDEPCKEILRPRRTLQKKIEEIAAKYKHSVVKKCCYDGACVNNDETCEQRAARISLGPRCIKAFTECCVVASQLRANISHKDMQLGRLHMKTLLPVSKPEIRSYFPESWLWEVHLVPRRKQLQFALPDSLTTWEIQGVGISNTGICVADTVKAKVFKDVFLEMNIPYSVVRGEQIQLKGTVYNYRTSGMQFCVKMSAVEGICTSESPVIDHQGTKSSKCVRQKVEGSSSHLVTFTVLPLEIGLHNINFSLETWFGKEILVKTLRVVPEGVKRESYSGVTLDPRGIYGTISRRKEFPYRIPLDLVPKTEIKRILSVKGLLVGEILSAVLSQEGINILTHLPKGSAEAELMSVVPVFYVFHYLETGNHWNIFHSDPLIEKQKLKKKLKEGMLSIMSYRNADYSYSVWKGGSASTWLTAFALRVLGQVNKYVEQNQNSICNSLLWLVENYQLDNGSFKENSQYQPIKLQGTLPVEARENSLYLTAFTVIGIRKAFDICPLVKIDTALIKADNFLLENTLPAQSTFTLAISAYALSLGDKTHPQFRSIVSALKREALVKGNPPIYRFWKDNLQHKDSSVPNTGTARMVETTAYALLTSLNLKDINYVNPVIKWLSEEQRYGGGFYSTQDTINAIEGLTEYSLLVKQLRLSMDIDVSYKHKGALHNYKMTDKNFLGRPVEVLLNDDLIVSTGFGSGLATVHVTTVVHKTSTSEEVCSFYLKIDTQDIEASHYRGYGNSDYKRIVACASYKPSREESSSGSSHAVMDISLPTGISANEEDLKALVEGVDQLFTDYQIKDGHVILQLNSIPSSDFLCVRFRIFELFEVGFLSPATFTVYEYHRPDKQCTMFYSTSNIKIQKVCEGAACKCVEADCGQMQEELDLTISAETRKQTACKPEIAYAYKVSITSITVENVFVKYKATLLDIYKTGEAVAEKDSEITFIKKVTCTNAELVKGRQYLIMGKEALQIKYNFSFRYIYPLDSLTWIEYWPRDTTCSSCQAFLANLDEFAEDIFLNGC
Hi team, quick reminder: these entries are log10 of Kd (nM).

Request: What value of log10 Kd has been reported for the following molecule? COc1ccc(NC(=O)NC(CO)c2cc(NC(C)=O)ccc2OC)cc1OCCCC(C)C (stereo not drawn)
Result: 2.56

Request: What value of log10 Kd has been reported for the following molecule? `COc1ccc(NC(=O)NCc2ccnc3c2ccn3C)cc1OCCCC(C)C`
Result: 1.72

Request: What value of log10 Kd has been reported for the following molecule? `COc1ccc(NC(=O)NCc2ccnc(N)c2)cc1OCCCC(C)C`
Result: 1.99

Request: What value of log10 Kd has been reported for the following molecule? COc1ccc(NC(=O)N[C@H](CO)c2ccccc2)cc1C(F)C(F)CCC(C)C (stereo partly drawn)
Result: 2.88

Request: What value of log10 Kd has been reported for the following molecule? `COc1ccc(NC(=O)N[C@@H](CO)c2ccccc2)cc1OCCC1CCCCC1`
Result: 2.20

Request: What value of log10 Kd has been reported for the following molecule? `COc1ccc(NC(=O)NCc2ccnc(NCCN(C)C)c2)cc1OCCCC(C)C`
Result: 2.62

Request: What value of log10 Kd has been reported for the following molecule? `COc1ccc(NC(=O)NCc2cccc3c2ccn3CCCN(C)C)cc1OCCCC(C)C`
Result: 1.43

Request: What value of log10 Kd has been reported for the following molecule? `COc1ccc(NC(=O)NCc2ccncc2OCCCN(C)C)cc1OCCCC(C)C`
Result: 2.42

Request: What value of log10 Kd has been reported for the following molecule? `COc1ccc(NC(=O)N(C)Cc2cccc3ccn(C)c23)cc1OCCCC(C)C`
Result: 3.32

###

molecular target: purified human C5 (Homo sapiens); experiment: Red blood cell (RBC) hemolysis assay, optical, absorbance 412 nm (Example 10, Table 19); format: cell-based; settings: antibody-sensitized sheep erythrocytes, […] human C5 depleted sera, 0.5 nM purified human C5, absorbance 412 nm; read-out: RBC Hemolysis IC50
Sequence (P01031 19-1676): as above
measuredQuantity: IC50 (µM)
State the answer as a number, implicitly in µM.

Request: What value of IC50 has been reported for the following compound? `COCCOCCOc1cc(CNC(=O)Nc2ccc(OC)c(OCCCC(C)C)c2)ccn1`
Result: 2.18

Request: What value of IC50 has been reported for the following compound? `COC(=O)c1cc(OC)c(OCCCC(C)C)cc1NC(=O)N[C@@H](CO)c1ccccc1`
Result: 1.38

Request: What value of IC50 has been reported for the following compound? `COc1ccc(NC(=O)NCc2ccnc3c2ccn3CCN2CCCC2)cc1OCCCC(C)C`
Result: 0.156

Request: What value of IC50 has been reported for the following compound? `COc1ccc(NC(=O)NCc2ccc(CN3CCOCC3)cc2)cc1OCCCC(C)C`
Result: 4.59

###

biological target: Human C5 (Homo sapiens, UniProt P01031); construct: purchased Complement Technology; assay: Red blood cell (RBC) hemolysis assay, luminescent (Example 13, Table 22); format: cell-based; settings: sheep EA cells, […] C5-depleted human serum, 0.5 nM human C5, 1 hour 37° C., luminescence; note: 1.5% C5-depleted human serum
Please respond with reported IC50 for every item in the list.
State the answer as a number, implicitly in nM.

Request: What value of IC50 has been reported for the following compound? `COc1ccc(F)cc1CN1CCCN(c2ccc(OC)c(OCC[C@@H]3C[C@@H]4CC[C@H]3C4)c2)C1=O`
Result: 32.4

Request: What value of IC50 has been reported for the following compound? `COc1ccc(F)cc1CN1CCCN(c2ccc(OC)c(OCCc3ccc(C)cc3)c2)C1=O`
Result: 221

Request: What value of IC50 has been reported for the following compound? CCCCCOc1cc(N2CCCN(Cc3ccnc4c3ccn4CC(=O)N3CCOC(COC)C3)C2=O)ccc1OC (stereo not drawn)
Result: 57.3

Request: What value of IC50 has been reported for the following compound? `CCCCCOc1cc(N2CCCN(Cc3cccc(-c4cnn(C5CCN(C)CC5)c4)c3OC)C2=O)ccc1OC`
Result: 146

Request: What value of IC50 has been reported for the following compound? CCCCCOc1cc(N2CCCN(Cc3cccc4c3ccn4CC(=O)N(C)C3CCN(CC)C3)C2=O)ccc1OC (stereo not drawn)
Result: 8.2

Request: What value of IC50 has been reported for the following compound? `C=CCCCOc1cc(N2CCCN(Cc3cc(F)ccc3OC)C2=O)ccc1OC`
Result: 39.9

Request: What value of IC50 has been reported for the following compound? `CCCCCOc1cc(N2CCN(Cc3cccc(F)c3Cl)C2=O)ccc1OC`
Result: 886

Request: What value of IC50 has been reported for the following compound? `COc1cc(CC(=O)N2CCCOCC2)ccc1CN1CCCN(c2ccc(OC)c(OCCCC(C)(F)F)c2)C1=O`
Result: 12.5

Request: What value of IC50 has been reported for the following compound? `COc1ccc(F)cc1CN1CCCN(c2ccc(OC)c(OCCCC(C)C)c2)C1=O`
Result: 18.3

Request: What value of IC50 has been reported for the following compound? `COc1ccc(N2CCCN(Cc3ccnc4c3ccn4CC(=O)N(C)C)C2=O)cc1OCCC1CCCC1`
Result: 75

Request: What value of IC50 has been reported for the following compound? `CCCCCOc1cc(N2CCCN(Cc3ccnc4c3ccn4CC(=O)N(C)C)C2=O)ccc1C1CC1`
Result: 121

Request: What value of IC50 has been reported for the following compound? `CCCCCOc1cc(N2CCCN(Cc3ccc(CC(=O)N4CCCC4)cc3Cl)C2=O)ccc1OC`
Result: 35.3

Request: What value of IC50 has been reported for the following compound? `CCCCCOc1cc(N2CCCN(Cc3cccc4nc(C)oc34)C2=O)ccc1OC`
Result: 243

Request: What value of IC50 has been reported for the following compound? `CCCCCOc1cc(N2CCCN(Cc3ccc(Cc4nnco4)cc3OC)C2=O)ccc1OC`
Result: 11.8

Request: What value of IC50 has been reported for the following compound? `CCCCCOc1cc(N2CCCN(Cc3cccc4c3ccn4CC(=O)N3CCOCC3)C2=O)ccc1OC`
Result: 15

###

biological target: Human C5 (Homo sapiens, UniProt P01031); construct: purchased Complement Technology; assay: Red blood cell (RBC) hemolysis assay, luminescent (Example 24, Table 29); type: cell-based; conditions: sheep EA cells, […] C5-depleted human serum, 0.5 nM human C5, 1 hour at 37° C., luminescence (Table 29)
measuredQuantity: pIC50
Note on pIC50: it is the negative log10 of concentration, concentration in mol/L.

Request: What value of pIC50 has been reported for the following molecule? CCCCCOc1cc(N2CC(COCC(=O)N3CCOCC3)CN(Cc3cc(F)ccc3OC)C2=O)ccc1OC (centres unmarked) [SC0029]
Result: 7.07

Request: What value of pIC50 has been reported for the following molecule? CCCCCOc1cc(N2CC(COCC(=O)NC)CN(Cc3cc(F)ccc3OC)C2=O)ccc1OC (centres unmarked) [SC0030]
Result: 7.02

Request: What value of pIC50 has been reported for the following molecule? CCCCCOc1cc(N2CC(Cn3cc(-c4ccccn4)nn3)CN(Cc3cc(F)ccc3OC)C2=O)ccc1OC (centres unmarked) [SC0038]
Result: 6.89

Request: What value of pIC50 has been reported for the following molecule? CCCCCOc1cc(N2CC3(CN(Cc4cc(F)ccc4OC)C2=O)CC3(F)F)ccc1OC (centres unmarked) [SC0068]
Result: 7.11

Request: What value of pIC50 has been reported for the following molecule? CCCCCOc1cc(N2CC(O)(CO)CN(Cc3cc(F)ccc3OC)C2=O)ccc1OC (centres unmarked) [SC0022]
Result: 6.85
